// data source = patent US20160212997A1

Tested on: aphids, Myzus persicae
method.summary: Potter tower spray on aphids, knockdown and mortality
Type: in vivo
condition.description: Myzus persicae, 48 h, read-out: Average of % corrected affected
metric.name: pest or weed control at 0.00025 % strength

Report pest or weed control at 0.00025 % strength for every entry below.
1. O=C(CSc1ccc(C2=NOC(c3cc(Cl)cc(Cl)c3)(C(F)(F)F)C2)s1)NCC(F)(F)F (stereo not shown)
2. Cc1cc(C2=NOC(c3cc(Cl)cc(Cl)c3)(C(F)(F)F)C2)sc1SCC(=O)NCC(F)(F)F (stereo not shown)
3. Cc1cc(C2=NOC(c3cc(Cl)cc(Cl)c3)(C(F)(F)F)C2)ccc1SC1CCNC1=O (stereo not shown)

20 to 39%
1 to 19%
1 to 19%

Look up pest or weed control at 0.00025 % strength: Cc1cc(C2=NOC(c3cc(Cl)cc(Cl)c3)(C(F)(F)F)C2)ccc1SCC(=O)NCC(F)(F)F (stereo not shown) [Compound 15, reference compound]
1 to 19%

---

Provide the recorded pest or weed control at 0.05 % strength for the entries that follow.
System: caterpillars, a mixture of Mamestra brassicae and Lacanobia oleracea
method.summary: Potter tower spray on caterpillars, knockdown and mortality
Format: in vivo
condition.description: 24 h, Caterpillars, 0.05 % w/v, 24 hours post application; read-out: Average of % corrected affected

Examples with answers:
compound | system | pest or weed control at 0.05 % strength
CCOC(=O)CN(Cc1ccc(Cl)nc1)C1=CC(=O)OC1 | caterpillars, a mixture of Mamestra brassicae and Lacanobia oleracea | 1 to 19%
N#CCN(Cc1ccc(Cl)nc1)C1=CC(=O)OC1 | caterpillars, a mixture of Mamestra brassicae and Lacanobia oleracea | 0%
O=C(Nc1ccc(-c2cccnc2)oc1=O)C1CC1 [Compound 25, reference compound] | caterpillars, a mixture of Mamestra brassicae and Lacanobia oleracea | 1 to 19%

Continue with the compound presented below.
Recorded pest or weed control at 0.05 % strength for COC(CN(Cc1ccc(Cl)nc1)C1=CC(=O)OC1)OC with caterpillars, a mixture of Mamestra brassicae and Lacanobia oleracea, please?
1 to 19%

---

Tested on: aphids, Myzus persicae
method.summary: Potter tower spray on aphids, knockdown and mortality
Format: in vivo
condition.description: Myzus persicae, 48 h, read-out: Average of % corrected affected
metric.name: pest or weed control at 0.001 % strength

Report pest or weed control at 0.001 % strength for every entry below.
1. Cc1cc(C2=NOC(c3cc(Cl)cc(Cl)c3)(C(F)(F)F)C2)sc1SCC(=O)NCC(F)(F)F (stereo not shown)
2. Cc1cc(C2=NOC(c3cc(Cl)cc(Cl)c3)(C(F)(F)F)C2)ccc1SCC(=O)NCC(F)(F)F (stereo not shown) [Compound 15, reference compound]

["1 to 19%", "20 to 39%"]

Report pest or weed control at 0.001 % strength for every entry below.
1. Cc1cc(C2=NOC(c3cc(Cl)cc(Cl)c3)(C(F)(F)F)C2)ccc1SC1CCNC1=O (stereo not shown)
2. O=C(CSc1ccc(C2=NOC(c3cc(Cl)cc(Cl)c3)(C(F)(F)F)C2)s1)NCC(F)(F)F (stereo not shown)

["1 to 19%", "40 to 59%"]

---

Test system: aphids, Myzus persicae
method.summary: Potter tower spray on aphids, knockdown and mortality
Format: in vivo
condition.description: Myzus persicae, 48 h, Aphids, 0.05 % w/v, 48 hours post application; read-out: Average of % corrected affected
metric.name: pest or weed control at 0.05 % strength

Examples with answers:
compound | system | assay.result
COC(CN(Cc1ccc(Cl)nc1)C1=CC(=O)OC1)OC | aphids, Myzus persicae | 20 to 39%
N#CCN(Cc1ccc(Cl)nc1)C1=CC(=O)OC1 | aphids, Myzus persicae | 40 to 59%
O=C(Nc1ccc(-c2cccnc2)oc1=O)C1CC1 [Compound 25, reference compound] | aphids, Myzus persicae | 40 to 59%
O=C(Nc1ccc(-c2cncnc2)oc1=O)C1CC1 | aphids, Myzus persicae | 1 to 19%

Continue with the compound presented below.
Look up pest or weed control at 0.05 % strength: CCOC(=O)CN(Cc1ccc(Cl)nc1)C1=CC(=O)OC1
20 to 39%

---

System: caterpillars, a mixture of Mamestra brassicae and Lacanobia oleracea
method.summary: Potter tower spray on caterpillars, knockdown and mortality
Format: in vivo
condition.description: 24 h, read-out: Average of % corrected affected
metric.name: pest or weed control at 0.00025 % strength

compound | assay.result
Cc1cc(C2=NOC(c3cc(Cl)cc(Cl)c3)(C(F)(F)F)C2)sc1SCC(=O)NCC(F)(F)F (stereo not shown) | 1 to 19%

Report pest or weed control at 0.00025 % strength for every entry below.
1. O=C(CSc1ccc(C2=NOC(c3cc(Cl)cc(Cl)c3)(C(F)(F)F)C2)s1)NCC(F)(F)F (stereo not shown)
2. Cc1cc(C2=NOC(c3cc(Cl)cc(Cl)c3)(C(F)(F)F)C2)ccc1SC1CCNC1=O (stereo not shown)
3. Cc1cc(C2=NOC(c3cc(Cl)cc(Cl)c3)(C(F)(F)F)C2)ccc1SCC(=O)NCC(F)(F)F (stereo not shown) [Compound 15, reference compound]

0%
1 to 19%
1 to 19%

---

System: aphids, Myzus persicae
method.summary: Potter tower spray on aphids, knockdown and mortality
Type: in vivo
condition.description: Myzus persicae, 24 h, Aphids, 0.1 % w/v, 24 hours post application; read-out: Average of % corrected affected
metric.name: pest or weed control at 0.1 % strength

Examples with answers:
compound | system | assay.result
CCOC(=O)CN(Cc1ccc(Cl)nc1)C1=CC(=O)OC1 | aphids, Myzus persicae | 1 to 19%
COC(CN(Cc1ccc(Cl)nc1)C1=CC(=O)OC1)OC | aphids, Myzus persicae | 1 to 19%
CC(=O)N=S(C)(=O)C(C)c1ccc(C(F)(F)F)nc1 (stereo not drawn) | aphids, Myzus persicae | 20 to 39%
COC(=O)N=S(C)(=O)C(C)c1ccc(C(F)(F)F)nc1 (stereo not drawn) | aphids, Myzus persicae | 20 to 39%
CC(c1ccc(C(F)(F)F)nc1)S(C)(=O)=NS(C)(=O)=O (stereo not drawn) | aphids, Myzus persicae | 20 to 39%

Continue with the compound presented below.
Look up pest or weed control at 0.1 % strength: N#CCN(Cc1ccc(Cl)nc1)C1=CC(=O)OC1
1 to 19%

---

Provide the recorded pest or weed control at 0.00625 % strength for the entries that follow.
System: caterpillars, a mixture of Mamestra brassicae and Lacanobia oleracea
method.summary: Potter tower spray on caterpillars, knockdown and mortality
Format: in vivo
condition.description: 24 h, Caterpillars, 0.00625 % w/v, 24 hours post application; read-out: Average of % corrected affected

Report pest or weed control at 0.00625 % strength for every entry below.
1. COC(CN(Cc1ccc(Cl)nc1)C1=CC(=O)OC1)OC
2. O=C(Nc1ccc(-c2cccnc2)oc1=O)C1CC1 [Compound 25, reference compound]
3. CCOC(=O)CN(Cc1ccc(Cl)nc1)C1=CC(=O)OC1
4. N#CCN(Cc1ccc(Cl)nc1)C1=CC(=O)OC1

1. 1 to 19%
2. 1 to 19%
3. 1 to 19%
4. 1 to 19%

---

Test system: caterpillars, a mixture of Mamestra brassicae and Lacanobia oleracea
method.summary: Potter tower spray on caterpillars, knockdown and mortality
Type: in vivo
condition.description: 48 h, read-out: Average of % corrected affected
Provide the recorded pest or weed control at 0.001 % strength for the entries that follow.

compound | system | metric.name | assay.result
Cc1cc(C2=NOC(c3cc(Cl)cc(Cl)c3)(C(F)(F)F)C2)ccc1SC1CCNC1=O (stereo not shown) [Compound 21] | caterpillars, a mixture of Mamestra brassicae and Lacanobia oleracea | pest or weed control at 0.001 % strength | 1 to 19%
Cc1cc(C2=NOC(c3cc(Cl)cc(Cl)c3)(C(F)(F)F)C2)sc1SCC(=O)NCC(F)(F)F (stereo not shown) [Compound 20] | caterpillars, a mixture of Mamestra brassicae and Lacanobia oleracea | pest or weed control at 0.001 % strength | 1 to 19%

Report pest or weed control at 0.001 % strength for every entry below.
1. O=C(CSc1ccc(C2=NOC(c3cc(Cl)cc(Cl)c3)(C(F)(F)F)C2)s1)NCC(F)(F)F (stereo not shown) [Compound 19]
2. Cc1cc(C2=NOC(c3cc(Cl)cc(Cl)c3)(C(F)(F)F)C2)ccc1SCC(=O)NCC(F)(F)F (stereo not shown) [Compound 15, reference compound]

["1 to 19%", "1 to 19%"]

---

Provide the recorded pest or weed control at 0.025 % strength for the entries that follow.
Test system: aphids, Myzus persicae
method.summary: Potter tower spray on aphids, knockdown and mortality
Assay type: in vivo
condition.description: Myzus persicae, 48 h, Aphids, 0.025 % w/v, 48 hours post application; read-out: Average of % corrected affected

compound | pest or weed control at 0.025 % strength
O=C(Nc1ccc(-c2cccnc2)oc1=O)C1CC1 [Compound 25, reference compound] | 60 to 79%
N#CCN(Cc1ccc(Cl)nc1)C1=CC(=O)OC1 | 40 to 59%
COC(CN(Cc1ccc(Cl)nc1)C1=CC(=O)OC1)OC | 1 to 19%

Continue with the compound presented below.
Look up pest or weed control at 0.025 % strength: CCOC(=O)CN(Cc1ccc(Cl)nc1)C1=CC(=O)OC1
20 to 39%
